- Measured Target: T1, 6His-Fc-FGFR4 (human, UniProt P22455 144-369)
- T1 construct: not shown: 6His tag and Fc as named in '6His-Fc-FGFR'
- T1 sequence: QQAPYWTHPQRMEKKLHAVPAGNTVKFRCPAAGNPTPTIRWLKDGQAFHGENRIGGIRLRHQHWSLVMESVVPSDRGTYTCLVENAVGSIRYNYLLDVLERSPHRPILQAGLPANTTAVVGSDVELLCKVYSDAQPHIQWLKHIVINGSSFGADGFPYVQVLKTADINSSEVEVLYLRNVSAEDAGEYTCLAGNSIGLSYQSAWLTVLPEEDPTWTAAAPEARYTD
- Assay Text: competition ELISA, blocks 6His-Fc-FGFR4 binding to coated FGF2
List of IC50 values.
Give the value in nM but do not write nM after it.

>>> measured_number("Ab19 (antibody, human IgG2, kappa, V domains shown, format in the assays not spelled out) VH: EVQLLESGGGVVQPGRSLRLSCAASGFTFSSYAMHWVRQAPGKGLEWVAVISYDGSNKYYADSVKGRFTISRDNSKNTLSLQMNSLRVEDTAIYYCVRGAGRGFTLGPDGFDIWGQGTMVTVSS VL: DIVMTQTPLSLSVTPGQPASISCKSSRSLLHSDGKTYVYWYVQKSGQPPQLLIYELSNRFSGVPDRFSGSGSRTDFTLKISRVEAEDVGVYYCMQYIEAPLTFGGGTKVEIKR")
11.8

We now examine a further binder.
Inquiry: # IC50 lookup, item Ab32 (antibody, human IgG2, kappa, V domains shown, format in the assays not spelled out) VH: EVQLLESGGGVVQPGRSLRLSCAASGFTFSSYAMHWVRQAPGKGLEWVAVISYDGSNKYYADSVKGRFTISRDNSKNTLSLQMNSLRVEDTAIYYCVRGAGLGFTYGPDGFDIWGQGTMVTVSS VL: DIVMTQTPLSLSVTPGQPASISCTSSRSLLHSDGKTYVYWYVQKSGQPPQLLIYELSNRFSGVPDRFSGSGSRTDFTLKISRVEAEDVGVYYCMQYVEAPLTFGGGTKVEIKR
Reply text: 11.5

Reference source for all entries: patent US20180244785A1
